Entry source: BigSolDB 2.1

The reader will find reported solubility (mole fraction) values listed item by item below.
settings: in water, 363.15 K

>  <compound>
O=Cc1ccccc1

>  <solubility (mole fraction)>
0.00261

$$$$
>  <compound>
O=Cc1ccco1

>  <solubility (mole fraction)>
0.0314

$$$$
>  <compound>
OCCc1ccccc1

>  <solubility (mole fraction)>
0.0065

$$$$
>  <compound>
CCCCCC1CCC(=O)O1 (centres undefined)

>  <solubility (mole fraction)>
0.00118

$$$$

---

Parameter solubility (mole fraction): see the listing below.
settings: in water, 343.15 K

>  <compound>
CCCCCC1CCC(=O)O1 (configuration not stated)

>  <solubility (mole fraction)>
0.00099

$$$$
>  <compound>
OCCc1ccccc1

>  <solubility (mole fraction)>
0.0055

$$$$
